Test system: IGROV1 ovarian
Method Description: NCI-60 one-dose screen, 48 h (100 = growth as untreated, 0 = no growth, -100 = all killed)
Condition Context: 10 µM unless noted
Compounds without any hit were thinned out: in the full panel of roughly 83,000, 20% have a hit.
Measured Property: growth (%)
The answer is to be given in %; state only the numeric part.

Value of measured growth for the entry `C=CCOc1ccc2c(c1)CC[C@@H]1[C@@H]2CC[C@@]2(C)[C@H]1CC[C@]2(C)O` : 104

Value of measured growth for the entry CC(=O)Oc1ccc(C23c4ccccc4C2(OC(C)=O)c2cc(OC(C)=O)ccc23)cc1 (stereo unspecified) : 91.9

Value of measured growth for the entry `CN1COc2ccc3ccccc3c2C1` : 86.3

Value of measured growth for the entry `COc1ccc2c(c1)C(=O)c1c-2c(=O)n(CCCCCCC(=O)NO)c2ccccc12` : -34.9

Value of measured growth for the entry `O=C1C[C@@H]2/C(=C(O)\C=C\c3ccccc3)C(=O)C=C[C@@H]2O1` : -52.6

Value of measured growth for the entry `NC(=O)c1ccccc1NC(=O)c1ccccc1Cl` : 96

---

Tested on: RXF 393 renal
Method Description: NCI-60 one-dose screen, 48 h (100 = growth as untreated, 0 = no growth, -100 = all killed)
Condition Context: 10 µM unless noted
About 83,000 compounds went through this panel and 20% of them were active in at least one assay; those are over-represented in the sample as a whole.
Measured Property: growth (%)
The answer is to be given in %; state only the numeric part.

Look over these answered cases.
Value of measured growth for the entry `Cc1cc(CC(=O)O)n(C)c1C(=O)c1ccc(Cl)cc1` : 117

Value of measured growth for the entry `N#CCCN(CCO)c1ccccc1` : 105

Value of measured growth for the entry `Cc1ccc([N+](=O)[O-])cc1NC(=O)Nc1cccc(F)c1` : 126

Value of measured growth for the entry `CN(C(=O)c1ccccc1)N(C)C(=O)c1ccccc1` : 122

Value of measured growth for the entry `COc1ccc2c(c1)nc(N)c1c3cc(C)c(C)cc3cn21` : 78.1

New cases:
Value of measured growth for the entry `O=c1cc(-c2cccnc2)oc2c1ccc1ccccc12` : 68

Value of measured growth for the entry `O=C(c1ccccc1)c1ccco1` : 131

---

System: SN12C renal
Method Description: NCI-60 one-dose screen, 48 h
Condition Context: 10 µM unless noted
The panel holds about 83,000 compounds, 20% with a hit somewhere; the sample as a whole holds those more often. Active and inactive are the calls of the source. Rule for the calls: active = growth percent below 10; inactive = the rest.
Parameter call: string, one of 1.0 for active, 0.0 for inactive

Please review the entries below; each comes with its answer.
-- ask Field: outcome | Entry: N#Cc1c2ccccc2c2n1-c1ccccc1OC(c1ccccc1)C2=O (configuration not stated)
-- reply 0.0

-- ask Field: outcome | Entry: O=C1Nc2ccccc2C12Nc1cc(Cl)ccc1S2 (configuration not stated)
-- reply 0.0

-- ask Field: outcome | Entry: `COc1cccc2c1O/C(=C\c1c([N+](=O)[O-])ncn1C)C2=O`
-- reply 0.0

New cases:
-- ask Field: outcome | Entry: `CCN(CC)CCOc1ccc(C2=C(c3ccccc3)CCc3cc(OC)ccc32)cc1`
-- reply 0.0

-- ask Field: outcome | Entry: CCC(C)CC(C)C(=O)c1c(O)ccn(O)c1=O (configuration not stated)
-- reply 0.0

-- ask Field: outcome | Entry: `Cn1cc(-c2csc(-c3c[nH]c4ncccc34)n2)c2cc(Br)cnc21`
-- reply 1.0

-- ask Field: outcome | Entry: `c1ccc(-c2nn[nH]n2)c(-c2ccc(CN3CCN(c4nsc5ccccc45)CC3)cc2)c1`
-- reply 0.0

-- ask Field: outcome | Entry: `CC(C)(C)c1ccc(S(=O)(=O)O)s1`
-- reply 0.0

-- ask Field: outcome | Entry: `OC(CCC(O)(c1ccccc1)c1ccccc1)(c1ccccc1)c1ccccc1`
-- reply 0.0

---

// values below are reported growth
Tested on: A498 renal
Method Description: NCI-60 one-dose screen, 48 h (100 = growth as untreated, 0 = no growth, -100 = all killed)
Condition Context: 10 µM unless noted
This is part of a sample that, as a whole, favours compounds with a hit. Of some 83,000 tested, about 20% had one in any assay.
The answer is to be given in %; state only the numeric part.

Look over these answered cases.
Value of measured growth for the entry `COc1cc(NC(=O)c2cc3ccccc3cc2O)c(OC)cc1Cl` : 25.4

Value of measured growth for the entry O=C(C(=O)N1CCCCC1)c1ccc(OC2OC(CO)C(O)C(O)C2O)cc1 (stereo not given) : 126

Value of measured growth for the entry `c1ccc(-n2nnnc2-c2cccc3ccccc23)cc1` : 32.6

New cases:
Value of measured growth for the entry CCOc1cccc(C2CC(=O)Nc3cc4c(cc32)OCO4)c1 (stereo not given) : 66.5

Value of measured growth for the entry `CCCOc1ccc2c(c1)CC[C@@H]1[C@@H]2CC[C@@]2(C)[C@H]1CC[C@]2(C)O` : 114

Value of measured growth for the entry `COc1ccc(-n2nc3c(c2-c2ccc(OC)c(OC)c2)-c2oncc2CC3)cc1` : 83.5

Value of measured growth for the entry `CC(C)[C@H]1CC[C@H]2[C@@H](CC[C@H]3[C@](C)(CN)CCC[C@]23C)C1` : 81.3

Value of measured growth for the entry `CN(C(=O)c1ccccc1)N(C)C(=O)c1ccccc1` : 100

Value of measured growth for the entry `COc1cc(/C=C/C(=O)Nc2ccc3c(c2)/C(=C\c2cccn2C)C(=O)N3)cc(OC)c1OC` : 46.8

Value of measured growth for the entry `COc1cc(OC)c2cc(C(=O)O)c(=O)oc2c1` : 102

---

System: M14 melanoma
Method Description: NCI-60 one-dose screen, 48 h
Condition Context: 10 µM unless noted
The panel holds about 83,000 compounds, 20% with a hit somewhere; the sample as a whole holds those more often. Calls of active or inactive are those of the source. How the source made its calls: active means growth percent below 10; inactive means the rest.
Parameter call: string, one of label 1 (active), label 0 (inactive)

Please review the entries below; each comes with its answer.
-- ask Field: outcome | Entry: `COc1cc2cn3c4ccc(O)cc4nc(N)c3c2cc1OC`
-- reply label 1

-- ask Field: outcome | Entry: `Oc1ccccc1C=Nc1ccccc1N=Cc1ccccc1O.[Cu+2]`
-- reply label 0

-- ask Field: outcome | Entry: CC[C@]1(O)CC2CN(CCc3c([nH]c4ccccc34)[C@@](C(=O)OC)(c3cc4c(cc3OC)N(C)[C@H]3[C@@](O)(C(=O)OC)[C@H](OC(C)=O)[C@]5(CC)C=CCN6CC[C@]43[C@@H]65)C2)C1 (stereo partly specified)
-- reply label 1

-- ask Field: outcome | Entry: `CN=C(NC)N/N=C(C)\C=N\NC(=NC)NC`
-- reply label 0

-- ask Field: outcome | Entry: `NC(=O)c1ccccc1NC(=O)c1ccccc1Cl`
-- reply label 0

New cases:
-- ask Field: outcome | Entry: `COc1ccc(Cn2c(NCCCN(C)C)nc(=O)n(Cc3ccc(F)cc3)c2=O)cc1`
-- reply label 0

-- ask Field: outcome | Entry: `Clc1ccc2nc(Cl)c3ccccc3c2c1`
-- reply label 0

-- ask Field: outcome | Entry: `C[C@]12CC[C@@H]3c4ccc(O)c([N+](=O)[O-])c4CC[C@H]3[C@@H]1CC[C@@H]2NS(=O)(=O)c1cccc(Br)c1`
-- reply label 0

---

// values below are reported growth
Tested on: MDA-MB-231 breast
Method Description: NCI-60 one-dose screen, 48 h (100 = growth as untreated, 0 = no growth, -100 = all killed)
Condition Context: 10 µM unless noted
Protocol: Cells are grown in 96 well plates and exposed to the test compound for 48 hours. Compounds are tested at a single concentration, which is 10^-5 M for most compounds. The reported endpoint is percent growth (GI% or GIPRCNT), where numbers from 0 - 100% represent growth inhibition, and numbers from -100% - 0 represent cell death. For example, a value of 40 represents 60% growth inhibition. A value of 0 means no net growth occurred over the course of the experiment. […]
About 83,000 compounds went through this panel and 20% of them were active in at least one assay; those are over-represented in the sample as a whole.
The answer is to be given in %; state only the numeric part.

Look over these answered cases.
Value of measured growth for the entry `COc1ccc(OC)c(/C=C/c2nc(=S)n(-c3ccc(Cl)cc3)[nH]2)c1` : 87.2

Value of measured growth for the entry `C[C@]12CC[C@@H]3c4ccc(O)cc4CC[C@H]3[C@@H]1CC[C@@H]2NS(=O)(=O)c1cccc(Br)c1` : 71.1

Value of measured growth for the entry `CN(C)CCCN1c2nc3ccccc3cc2Sc2cc3ccccc3nc21` : -82.8

Value of measured growth for the entry `CCCCSc1cc(C)nc(N)n1` : 104

New cases:
Value of measured growth for the entry `CN1CCN(CC(=O)Nc2nc3c(s2)Nc2cc(Cl)c(Cl)cc2NC3=O)CC1` : 123

Value of measured growth for the entry `O=C(Nc1nc(-c2ccc(Cl)cc2)cs1)c1cc(O)c(O)c(O)c1` : 36

Value of measured growth for the entry `Nc1cc(Cl)c(S(N)(=O)=O)cc1S(N)(=O)=O` : 113

Value of measured growth for the entry `Clc1ncn[nH]1` : 112
